- ASSAY PROTOCOL: BSK_4H_SRB: Viability Assessment in the BioMAP Diversity Plus: 4H Assay (AID 2283027);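 note: cells exposed to compound for 24 h before staining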
- CONDITION DETAILS: primary human endothelial cells (HUVEC)
Calls of active or inactive are those of the source. Rule for the calls: active = hit-call score of the fitted dose curve at least 0.9, where 1 is the maximum; inactive = score below 0.9.
Outcome codes: active, inactive

molecule=c1ccc(-c2ccccn2)nc1 group=inactive
molecule=O=C(c1ccc(O)cc1)c1ccc(O)cc1O group=inactive
molecule=CC(C)(c1cc(Br)c(OCCO)c(Br)c1)c1cc(Br)c(OCCO)c(Br)c1 group=active
molecule=O=Nc1ccc(O)cc1 group=inactive
molecule=CO[Si](OC)(OC)c1ccccc1 group=inactive
molecule="CCCCC(CC)COCC1CO1 (configuration not stated)" group=inactive
molecule=CCCCC/C=C\C/C=C\CCCCCCCC(=O)OC group=active

----------
- Read-out: Collagen I, COL1A1 (gene 1277)
- ASSAY PROTOCOL: BSK_hDFCGF_CollagenI: BioMAP Diversity Plus: hDFCGF Assay for Collagen I Biomarker Activity (AID 2284250)
- CONDITION DETAILS: primary human foreskin fibroblasts
Active and inactive are the calls of the source. How the source made its calls: active means hit-call score of the fitted dose curve at least 0.9, where 1 is the maximum; inactive means score below 0.9.
Outcome codes: 1 (active), 0 (inactive)

compound=C=C[Si](OC(C)=O)(OC(C)=O)OC(C)=O group=0
compound=CCO[Si](C)(OCC)OCC group=0
compound=O=C(c1ccc(O)cc1)c1ccc(O)cc1O group=0
compound=CCOC(=O)c1ccccc1C(=C1C=C(Br)C(=O)C(Br)=C1)c1cc(Br)c(O)c(Br)c1 group=1
compound="CCCCC(CC)COCC1CO1 (stereo unspecified)" group=0
compound=O=C1CCCN1CCO group=0

----------
- Read-out: Urokinase-type plasminogen activator receptor (uPAR), PLAUR (gene 5329)
- ASSAY PROTOCOL: BSK_4H_uPAR: BioMAP Diversity Plus: 4H Assay for Urokinase-type plasminogen activator receptor (uPAR) Biomarker Activity (AID 2283030)
- CONDITION DETAILS: primary human endothelial cells (HUVEC); actives raise or lower the signal
Calls of active or inactive are those of the source. How the source made its calls: active means hit-call score of the fitted dose curve at least 0.9, where 1 is the maximum; inactive means score below 0.9.
Outcome codes: YES for active, NO for inactive

compound=CO[Si](OC)(OC)c1ccccc1 group=NO
compound=CC(C)(c1cc(Br)c(OCCO)c(Br)c1)c1cc(Br)c(OCCO)c(Br)c1 group=YES
compound=O=C(Cl)c1cc(C(=O)Cl)cc(C(=O)Cl)c1 group=YES
compound=O=C(Nc1ccccc1SSc1ccccc1NC(=O)c1ccccc1)c1ccccc1 group=NO
compound="CCCCC(CC)COC(=O)c1ccccc1O (stereo not given)" group=NO

----------
- Read-out: CD38, CD38 (gene 952)
- ASSAY PROTOCOL: BSK_SAg_CD38: BioMAP Diversity Plus: SAg Assay for CD38 Biomarker Activity (AID 2283087)
- CONDITION DETAILS: primary human HUVEC with PBMC; actives raise or lower the signal
Active and inactive are the calls of the source. Rule for the calls: active = hit-call score of the fitted dose curve at least 0.9, where 1 is the maximum; inactive = score below 0.9.
VALUE TYPE: AC50

compound="C=CCOCC(O)CCl (configuration not stated)" recorded_value=inactive
compound=CCCCNc1ccc(NCCCC)c2c1C(=O)c1ccccc1C2=O recorded_value=inactive
compound=c1ccc2c(c1)ccc1cc3c(ccc4ccccc43)cc12 recorded_value=inactive
compound=c1ccc(-c2ccccn2)nc1 recorded_value=inactive
compound=COc1ccc2nc(N)sc2c1 recorded_value=inactive
compound=c1ccc2c(c1)ccc1ncccc12 recorded_value="29.7 µM (active)"
compound="CC1OC1C1CCC2(C)OC2C1 (configuration not stated)" recorded_value=inactive
compound=CCCCCCCCc1ccc(Nc2ccc(CCCCCCCC)cc2)cc1 recorded_value=inactive
compound=O=Nc1ccc(O)cc1 recorded_value=inactive
compound=CC(C)C(=O)C(C)C recorded_value=inactive
compound=S=C(NC1CCCCC1)NC1CCCCC1 recorded_value=inactive
compound=CC(C)(c1cc(Br)c(OCCO)c(Br)c1)c1cc(Br)c(OCCO)c(Br)c1 recorded_value="5.1 µM (active)"
compound=O=c1c2ccccc2oc2ccccc12 recorded_value=inactive
compound=N#[N+]c1ccc2c(S(=O)(=O)[O-])cccc2c1O recorded_value=inactive
compound="CN1C(=O)N(C)C(O)C1O (configuration not stated)" recorded_value=inactive
compound=C=C[Si](OC(C)=O)(OC(C)=O)OC(C)=O recorded_value=inactive
compound="C=CC(=O)OCC(Br)CBr (configuration not stated)" recorded_value="15.3 µM (active)"

Values from PubChem BioAssay (EPA / NIEHS)
